Each recorded value in this set is attributed to patent US20230257449A1.

- studyTarget: polyclonal human IgG
- testName: BLI (Octet) polyreactivity
The label met is reserved for poly reactivity octet max binding response (nm) strictly under 0.8 nm; not met covers values equal to or above it.

Answered cases to consult:
| binder | className |
| --- | --- |
| FX-10-2-m3 (antibody, V domains shown) VH: QVQLVQSGAEVKKPGSSVKVSCKASGFTFSTYAIHWVRQAPGQGLEWMGVISYDANYKYYAQKFQGRVTITRDNSKSTAYMELSSLRSEDTAVYYCARDSRLRSLLYFEWLSQGYFDYWGQGTTLTVSS VL: DIQMTQSPSSLSASVGDRVTITCRSSQSITFDYKNYLAWYQQKPGKAPKLLIYWGSSLQSGVPSRFSGSGSGTDFTLTISSLQPEDFATYYCQQHYRTPPSFGQGTKVEIK | met |
| FX-4-2-m3 (antibody, V domains shown) VH: QVQLVESGGGVVQPGRSLRLSCAASGFDFSTYAMHWVRQAPGKGLEWVAVISYDANYKYYADSVKGRFTISRDNSKNTLYLQMNSLRAEDTAVYYCARDSRLRSLLYFEWLSQGYFDYWGQGTLVTVSS VL: DIQMTQSPSSLSASVGDRVTITCRSSQSITFDYKNYLAWYQQKPGKAPKLLIYWGSSLQSGVPSRFSGSGSGTDFTLTISSLQPEDFATYYCQQHYRTPPSFGQGTKVEIK | met |
| FX-7-6-m3 (antibody, V domains shown) VH: EVQLLESGGGLVQPGGSLRLSCAASGFTFSSYAMHWVRQAPGKGLEWVSVISYDANYKYYADSVKGRFTISRDNSKNTLYLQMNSLRAEDTAVYYCAKDSQLRSLLYFEWLSQGYFDYWGQGTTLTVSS VL: EIVMTQSPATLSVSPGERATLSCRSSQSITFDYKNYLAWYQQKPGQAPRLLIYWGSTRATGIPARFSGSGSGTEFTLTISSLQSEDFAVYYCQQHYRTPPSFGQGTKVEIK | met |
| FX-10-6-m3 (antibody, V domains shown) VH: QVQLVQSGAEVKKPGSSVKVSCKASGFTFSTYAIHWVRQAPGQGLEWMGVISYDANYKYYAQKFQGRVTITRDNSKSTAYMELSSLRSEDTAVYYCARDSRLRSLLYFEWLSQGYFDYWGQGTTLTVSS VL: EIVMTQSPATLSVSPGERATLSCRSSQSITFDYKNYLAWYQQKPGQAPRLLIYWGSTRATGIPARFSGSGSGTEFTLTISSLQSEDFAVYYCQQHYRTPPSFGQGTKVEIK | not met |
| FX-5-6-m3 (antibody, V domains shown) VH: QVQLVESGGGVVQPGRSLRLSCAASGFTFSTYAMHWVRQAPGKGLEWVCVISYDANYKYYADSVKGRFTCSRDNSKNTLYLQMNSLRAEDTAVYYCARDSRLRSLLYFEWLSQGYFDYWGQGTLVTVSS VL: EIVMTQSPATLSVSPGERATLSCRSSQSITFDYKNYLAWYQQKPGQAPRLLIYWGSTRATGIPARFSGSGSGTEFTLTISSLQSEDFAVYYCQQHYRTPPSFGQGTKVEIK | not met |
| FX-3-3-m3 (antibody, V domains shown) VH: QVQLVESGGGVVQPGRSLRLSCAASGFTFSTYAMHWVRQAPGKGLEWVAVISYDANYKYYADSVKGRFTISRDNSKNTLYLQMNSLRAEDTAVYYCAKDSQLRSLLYFEWLSQGYFDYWGQGTLVTVSS VL: DIQMTQSPSSLSASVGDRVTITCRSSQSITFDYKNYLAWYQQKPGKAPKLLIYAASSLQSGVPSRFSGSGSGTDFTLTISSLQPEDFATYYCQQHYRTPPSFGQGTKVEIK | met |

Here is another binder to look at.
## Input Find out if reported poly reactivity octet max binding response (nm) for FX-3-2-m3 (antibody, V domains shown) VH: QVQLVESGGGVVQPGRSLRLSCAASGFTFSTYAMHWVRQAPGKGLEWVAVISYDANYKYYADSVKGRFTISRDNSKNTLYLQMNSLRAEDTAVYYCAKDSQLRSLLYFEWLSQGYFDYWGQGTLVTVSS VL: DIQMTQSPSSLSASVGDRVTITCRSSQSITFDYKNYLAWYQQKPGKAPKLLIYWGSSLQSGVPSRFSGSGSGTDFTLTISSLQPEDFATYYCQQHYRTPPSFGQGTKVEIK is less than 0.8 nm
## Output met
